# Procedure details: Half life in CD-1 mouse at 1 mg/kg, iv measured upto 8 hrs by LC-MS/MS analysis
# Assay type: ADME, organism-based
# Condition description: in vivo
Metric name: half-life (h)
The reply should be a number in h, with the unit left off.

Input line: May I ask what half-life has been recorded for `C[C@H](Oc1ccc2ccc(/C=C/c3nn[nH]n3)c(C3CC3)c2c1)c1c(Cl)cccc1Cl` ?
Output line: 1.4

====

# Procedure details: Clearance in CD-1 mouse at 1 mg/kg, iv measured upto 8 hrs by LC-MS/MS analysis
# Type: ADME, organism-based
# Condition description: in vivo
Metric name: clearance (L/h/kg)
Respond with the bare value in L/h/kg.

Input line: Which value of clearance has been reported for `C[C@H](Oc1ccc2ccc(/C=C/c3nn[nH]n3)c(C3CC3)c2c1)c1c(Cl)cccc1Cl` in the records?
Output line: 0.48
